method_summary: NOD1 signaling inhibitors, primary screen, cell-based, luminescence, uHTS (AID 1578);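 note: HEK-293T reporter cells stimulated with the NOD1 agonist gamma-tri-DAP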
recorded_conditions: NOD1-driven NF-kB luciferase reporter cells, at 4 µM
Hit rate of the full screen: of about 290,000 compounds, about 3,000 (1%) were called active. Cut-off read from the data, not from the text of the source: active = inhibition mostly above about 36% (no sharp cut-off); inactive = mostly below about 34%. Many of the other results were omitted from the sample, so actives are more common in it than they were.
Outcomes you can answer with include only these: active, inactive

Outcome logged for O=S(=O)(Nc1cccc(S(=O)(=O)N2CCCCCC2)c1)c1ccccc1 in this assay: inactive

Outcome logged for CN=c1scc(-c2cccs2)n1/N=C/c1ccccc1O in this assay: active

Outcome logged for FC(F)(F)c1cc(-c2ccccc2)nc(N2CCCCC2)n1 in this assay: inactive

Outcome logged for N#Cc1c(C(F)(F)F)cc(-c2ccc(Cl)cc2)[nH]c1=O in this assay: active

Outcome logged for Cc1ccc(O)c(Nc2ncnc3ccc([N+](=O)[O-])cc23)c1 in this assay: inactive

Outcome logged for FC(F)(F)c1cc(-c2ccccc2)nc(N2CCCCCC2)n1 in this assay: active

Outcome logged for O=[N+]([O-])c1ccc2ncnc(Nc3ccc4c(c3)OCCO4)c2c1 in this assay: active

Outcome logged for c1coc(-c2nc(-c3ccncc3)no2)c1 in this assay: inactive

Outcome logged for COc1ccc(S(=O)(=O)Nc2cccc(S(=O)(=O)N3CCCCCC3)c2)cc1 in this assay: inactive

Outcome logged for Cc1ccc(-c2cc(C(F)(F)F)c(C#N)c(=O)[nH]2)cc1 in this assay: inactive

Outcome logged for Cc1ccc2nc(CNC(=O)C3CCC(=O)N(Cc4ccccc4F)C3)cn2c1 (configuration not stated) in this assay: inactive

Outcome logged for COc1ccc([N+](=O)[O-])cc1Nc1ncnc2ccccc12 in this assay: inactive

Outcome logged for COc1ccc(N2CCN(C(CNC(=O)C(=O)NCc3ccc4c(c3)OCO4)c3ccco3)CC2)cc1 (configuration not stated) in this assay: inactive

Outcome logged for COc1ccc(-c2nnc3sc(C4CCCCC4)nn23)cc1OC in this assay: inactive

Outcome logged for Cc1nc(N)ncc1-c1ccc2c(c1)OCO2 in this assay: inactive

Outcome logged for Cc1cc(NC(=O)Nc2cccc(C(F)(F)F)c2)no1 in this assay: inactive

Outcome logged for CC(C)Cc1ccc(C(C)C(=O)O)cc1 (configuration not stated) in this assay: inactive

Outcome logged for CCOc1cccc(-c2nnc3sc(-c4ccc(C)cc4)nn23)c1 in this assay: inactive

Outcome logged for O=C(O)/C=C/c1ccc([N+](=O)[O-])o1 in this assay: inactive

Outcome logged for COc1cc(-c2nnc3sc(C4CCCCC4)nn23)cc(OC)c1OC in this assay: inactive

Outcome logged for CC(=O)c1c(-c2ccccc2)[nH]c2ccccc12 in this assay: inactive

Outcome logged for O=C(OCc1ccc(Cl)cc1)c1cccnc1Cl in this assay: inactive

Outcome logged for O=C(/C=C/c1ccc(OCc2ccccc2)c(OCc2ccccc2)c1)c1cccnc1 in this assay: active

Outcome logged for CC1(C)Cc2c(sc(NC(=O)c3ccccc3)c2C(=O)O)CO1 in this assay: inactive

Outcome logged for O=C(c1cc(-c2ccc(Cl)cc2)n[nH]1)N1CCN(C(=O)c2ccco2)CC1 in this assay: inactive

Outcome logged for CC(C)N=c1scc(-c2cccs2)n1/N=C/c1ccc(O)c(O)c1O in this assay: inactive

Outcome logged for CCN(C(=O)COC(=O)/C=C/c1cccc([N+](=O)[O-])c1)c1ccccc1 in this assay: inactive

Outcome logged for CCN(CC)C(=O)Cn1cc(C(=O)C(=O)N(CC)C2CCCCC2)c2ccccc21 in this assay: inactive

Outcome logged for CN=c1scc(-c2cccs2)n1/N=C/c1ccc(O)c(O)c1O in this assay: inactive

Outcome logged for Cc1c(O)ccc2c(CC(=O)N[C@@H](Cc3c[nH]c4ccccc34)C(=O)O)cc(=O)oc12 in this assay: inactive

Outcome logged for O=C(CCc1nnc(CCC2CCCCC2)o1)NCCc1ccccn1 in this assay: inactive

Outcome logged for CN(C)/C=C/C(=O)c1cnc(-c2ccccc2Cl)s1 in this assay: inactive
